Would you kindly list IC50 for each of these molecules?
Biological target: NaV1.5 (Homo sapiens, UniProt Q14524)
Construct: permanently transfected with an expression vector containing the full-length cDNA coding for the desired human sodium channel α-subunit; expressed in transfected cells; host or cells: HEK-293
Sequence (Q14524 whole entry): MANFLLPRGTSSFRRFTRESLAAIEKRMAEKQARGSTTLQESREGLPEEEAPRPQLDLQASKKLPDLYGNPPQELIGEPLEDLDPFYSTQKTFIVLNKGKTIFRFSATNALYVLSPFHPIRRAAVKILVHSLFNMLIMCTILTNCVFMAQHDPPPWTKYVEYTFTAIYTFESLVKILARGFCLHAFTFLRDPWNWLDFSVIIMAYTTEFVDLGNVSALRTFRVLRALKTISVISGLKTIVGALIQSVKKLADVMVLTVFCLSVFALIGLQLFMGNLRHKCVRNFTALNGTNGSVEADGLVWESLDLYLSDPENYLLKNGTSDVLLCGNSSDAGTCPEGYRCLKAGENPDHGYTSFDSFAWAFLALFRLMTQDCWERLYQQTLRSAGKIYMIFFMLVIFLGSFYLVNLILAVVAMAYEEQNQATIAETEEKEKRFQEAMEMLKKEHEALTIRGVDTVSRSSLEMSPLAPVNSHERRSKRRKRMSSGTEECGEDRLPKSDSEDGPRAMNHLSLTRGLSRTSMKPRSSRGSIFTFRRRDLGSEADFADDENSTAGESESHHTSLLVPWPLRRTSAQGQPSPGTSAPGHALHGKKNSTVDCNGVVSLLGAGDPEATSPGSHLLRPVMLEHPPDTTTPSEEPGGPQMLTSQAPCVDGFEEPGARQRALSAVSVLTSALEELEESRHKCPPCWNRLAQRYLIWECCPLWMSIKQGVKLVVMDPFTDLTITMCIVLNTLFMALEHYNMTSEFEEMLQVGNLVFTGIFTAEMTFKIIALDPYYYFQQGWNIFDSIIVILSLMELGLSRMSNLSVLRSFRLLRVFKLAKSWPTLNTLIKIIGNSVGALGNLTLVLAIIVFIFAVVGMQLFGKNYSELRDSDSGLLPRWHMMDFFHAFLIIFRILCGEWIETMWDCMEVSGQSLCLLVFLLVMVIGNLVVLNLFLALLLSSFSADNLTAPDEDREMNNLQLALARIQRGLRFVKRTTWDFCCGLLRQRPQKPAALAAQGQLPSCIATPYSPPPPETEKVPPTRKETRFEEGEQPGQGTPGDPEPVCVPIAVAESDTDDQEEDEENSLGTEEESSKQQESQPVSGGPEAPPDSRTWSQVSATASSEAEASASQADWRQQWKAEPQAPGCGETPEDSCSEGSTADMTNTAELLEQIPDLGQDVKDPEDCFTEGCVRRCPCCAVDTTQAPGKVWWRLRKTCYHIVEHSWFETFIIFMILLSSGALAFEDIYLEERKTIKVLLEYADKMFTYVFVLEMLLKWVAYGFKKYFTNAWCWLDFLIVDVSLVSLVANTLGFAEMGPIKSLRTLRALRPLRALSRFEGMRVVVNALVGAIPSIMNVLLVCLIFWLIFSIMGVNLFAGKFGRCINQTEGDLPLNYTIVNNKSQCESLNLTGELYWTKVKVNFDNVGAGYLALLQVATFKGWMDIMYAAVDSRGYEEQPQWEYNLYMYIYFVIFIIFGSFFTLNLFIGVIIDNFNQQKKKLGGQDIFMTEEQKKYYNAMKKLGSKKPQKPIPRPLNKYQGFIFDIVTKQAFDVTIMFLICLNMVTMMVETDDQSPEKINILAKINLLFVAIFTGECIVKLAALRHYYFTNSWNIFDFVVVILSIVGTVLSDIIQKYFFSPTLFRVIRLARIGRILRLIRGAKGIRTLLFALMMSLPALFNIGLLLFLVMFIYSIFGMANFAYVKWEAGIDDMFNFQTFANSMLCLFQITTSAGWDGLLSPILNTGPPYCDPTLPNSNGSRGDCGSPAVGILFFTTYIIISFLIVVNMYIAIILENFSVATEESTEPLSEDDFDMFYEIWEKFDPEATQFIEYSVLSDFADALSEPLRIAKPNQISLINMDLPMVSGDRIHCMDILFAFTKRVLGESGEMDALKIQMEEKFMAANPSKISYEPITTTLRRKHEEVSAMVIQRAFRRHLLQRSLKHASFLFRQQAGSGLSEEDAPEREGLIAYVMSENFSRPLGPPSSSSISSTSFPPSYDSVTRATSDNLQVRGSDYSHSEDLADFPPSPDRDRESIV
Experiment: Patch voltage clamp electrophysiology assay (EP), NaV1.5
Assay type: cell-based
Settings: HEK-293 cells stably expressing NaV1.5 with β1 subunit; whole-cell patch clamp, membrane potential −60 mV (inactivated state); read-out: Nav1.5
Experimental: The following patch voltage clamp electrophysiology studies were performed on representative compounds of the invention using human embryonic kidney cells (HEK), permanently transfected with an expression vector containing the full-length cDNA coding for the desired human sodium channel α-subunit, grown in culture media containing 10% FBS, 1% PSG, and 0.5 mg/mL G418 at 37° C. with 5% CO2. […]
Could you give me the number in µM? Just the number is fine.

[ask] Need IC50 of CO[C@@H]1CN(C(=O)c2cc(C3CC3)c(OCC34CC5CC(CC(C5)C3)C4)cc2F)[C@H](C(=O)O)[C@H]1C [Example 207] , thanks.
[reply] 16

[ask] Need IC50 of C[C@H]1CCN(C(=O)c2cc(C3CC3)c(OCC3(C)CN([C@@H](c4ccccc4)c4cc(Cl)cc(Cl)c4)C3)cc2F)[C@@H]1C(=O)O (single isomer, unassigned) [Example 116] , thanks.
[reply] 15

[ask] Need IC50 of O=C(O)[C@@H]1[C@@H]2C[C@@H]2CN1C(=O)c1cc(C2CC2)c(OCC23CC4CC(CC(C4)C2)C3)cc1F (racemic) [Example 61] , thanks.
[reply] 12

[ask] Need IC50 of C[C@H]1OCN(C(=O)c2cc(C3CC3)c(OCC34CC5CC(CC(C5)C3)C4)cc2F)[C@@H]1C(=O)O [Example 162] , thanks.
[reply] 5.7

[ask] Need IC50 of O=C(NO)[C@@H]1C[C@@H](F)CN1C(=O)c1cc(C2CC2)c(OCC23CC4CC(CC(C4)C2)C3)cc1F [Example 199] , thanks.
[reply] 15

[ask] Need IC50 of O=C(O)[C@@H]1C[C@H](C(F)(F)F)CN1C(=O)c1cc(C2CC2)c(OCC23CC4CC(CC(C4)C2)C3)cc1F [Example 211] , thanks.
[reply] 14
